Target: DYRK1A (Homo sapiens (Human), UniProt Q13627)
Test: DYRK1A activity Tau assay: pSer396 Tau in SH-SY5Y cells by ELISA / western blot
Conditions: overnight (16-18 h) exposure
Strictly below 20 nM in EC50: T. Otherwise: F.

Query string: EC50 under 20 nM? Item: O=C(NCc1cc(F)cc(F)c1)c1n[nH]c2ccc(-c3cc(F)cc(CN4CCCCC4)c3)cc12
Result string: F

Query string: Hello, is EC50 of the following compound strictly smaller than 20 nM? CC(C)CC(=O)Nc1ccncc1NC(=O)c1n[nH]c2ccc(-c3cncc(CN4CCCCC4)c3)cc12
Result string: F

Query string: Hello, is EC50 of the following compound strictly smaller than 20 nM? O=C(Nc1cnc(C(F)(F)F)nc1)c1n[nH]c2ccc(-c3cncc(CN4CCCCC4)c3)cc12
Result string: T

Query string: For this compound, is EC50 lower than 20 nM? O=C(NCc1ccccc1)c1n[nH]c2ccc(-c3cncc(CN4CCCCC4)c3)cc12
Result string: T

Query string: Please check: EC50 for CC(C)(C)NC(=O)c1n[nH]c2ccc(-c3cncc(CN4CCCC4)c3)cc12 , strictly under 20 nM or not?
Result string: F

Query string: Quick check: does CC(C)NC(=O)c1n[nH]c2ccc(-c3cncc(CN4CCCC4)c3)cc12 have EC50 under 20 nM?
Result string: F

Query string: Consider the compound O=C(NC1CC1)c1n[nH]c2ccc(-c3cccnc3)cc12 . Is its EC50 strictly less than 20 nM?
Result string: F

Query string: Does this compound meet the criterion EC50 < 20 nM? CCN1CCC(NC(=O)c2n[nH]c3ccc(-c4cnc5ccccc5c4)cc23)CC1
Result string: F

Query string: Report whether reported EC50 is lower than 20 nM (strictly) for CC(F)(F)CN1CCC(NC(=O)c2n[nH]c3ccc(-c4cncc(F)c4)cc23)CC1
Result string: F

Query string: Lab log: compare recorded EC50 with 20 nM; is it strictly lower for CC(C)NC(=O)c1n[nH]c2ccc(-c3cncc(CN4CCC(F)(F)CC4)c3)cc12 ?
Result string: T

Query string: Here's an entry: O=C(Nc1ccnc(C(F)(F)F)c1)c1n[nH]c2ccc(-c3cccnc3)cc12 . Is its EC50 below 20 nM?
Result string: F

Query string: Consider the compound CC(C)NC(=O)c1n[nH]c2ccc(-c3cncc4ccccc34)cc12 . Is its EC50 strictly less than 20 nM?
Result string: F

Query string: Bench note: check whether O=C(Nc1cc(C(F)(F)F)ccn1)c1n[nH]c2ccc(-c3cccnc3)cc12 shows EC50 below 20 nM
Result string: F

Query string: Determine if CN1CCC(NC(=O)c2n[nH]c3ccc(-c4cccnc4)cc23)CC1 shows EC50 strictly lower than 20 nM.
Result string: F

Query string: Just wondering, is EC50 of CN1CCC2(CC1)CC(NC(=O)c1n[nH]c3ccc(-c4cccc(F)c4F)cc13)C2 below 20 nM?
Result string: T

Query string: Item O=C(NC1CCN(CC(F)F)CC1)c1n[nH]c2ccc(-c3cccnc3)cc12 : EC50 beneath 20 nM, strictly?
Result string: T

---

Molecular target: DYRK1A (Homo sapiens (Human))
Experiment: DYRK1A activity Tau assay: pSer396 Tau in SH-SY5Y cells by ELISA / western blot
Conditions: overnight (16-18 h) exposure
Assay readout: pEC50
Field pEC50 (float): negative decimal logarithm of the concentration in molar.

Query string: Reported pEC50, molecule CC(C)(F)CN1CCC(NC(=O)c2n[nH]c3ccc(-c4cncc(F)c4)cc23)CC1 : ____
Result string: 7.72

Query string: Recorded pEC50 of O=C(NC1CCCCC1)c1n[nH]c2ccc(-c3cncnc3)cc12 , please.
Result string: 7.19

Query string: Reported pEC50, molecule O=C(NC1CCN(CC(F)F)CC1)c1n[nH]c2ccc(-c3cncc(Cl)c3)cc12 : ____
Result string: 7.70

Query string: Reported pEC50 for Cc1cc2[nH]nc(C(=O)Nc3ccc(CN4CCCC4)cc3)c2cc1-c1cccnc1 : what is it?
Result string: 7.77

Query string: Consider the molecule O=C(NC1CCN(C2COC2)CC1)c1n[nH]c2ccc(-c3cccc(F)c3F)cc12 and give its measured pEC50.
Result string: 7.31

Query string: Any idea what its pEC50 is? The molecule is CC(C)CN1CC(NC(=O)c2n[nH]c3ccc(-c4cncc(Cl)c4)cc23)C1
Result string: 7.64

---

Target: DYRK1A (Homo sapiens (Human))
Test: DYRK1A activity Tau assay: pSer396 Tau in SH-SY5Y cells by ELISA / western blot
Conditions: overnight (16-18 h) exposure
Assay readout: EC50 (nM)
Kindly provide the numeric value in nM only, without the unit symbol.

Query string: What does the data say about its EC50? Entry: O=C(NC1CCCCC1)c1n[nH]c2ccc(-c3cncc(N4CCCC4)c3)cc12 [Compound 200]
Result string: 58

Query string: Entry CN(C)Cc1cncc(-c2ccc3[nH]nc(C(=O)NC4(c5ccccc5)CC4)c3c2)c1 [Compound 37] has what EC50?
Result string: 196

Query string: Would you mind telling me what EC50 value was observed for O=C(N[C@@H]1C[C@@H]1c1ccccc1)c1n[nH]c2ccc(-c3cncc(CN4CCCCC4)c3)cc12 [Compound 39] ?
Result string: 1

Query string: Fill blank: measured EC50 of the compound CC(F)(F)CN1CCC(NC(=O)c2n[nH]c3ccc(-c4cccnc4)cc23)CC1 [Compound 1300] is ____.
Result string: 6

Query string: Given the entry CC(C)NC(=O)c1n[nH]c2ccc(-c3cncc(CN4CCCCC4)c3)cc12 [Compound 131] , report its measured EC50.
Result string: 10

Query string: Would you kindly share the measured EC50 for O=C(NC1CC1)c1n[nH]c2ccc(-c3cncc(CN4CCCC4)c3)cc12 [Compound 148] ?
Result string: 11

Query string: Given NC(=O)c1n[nH]c2ccc(-c3cncc(CN4CCCCC4)c3)cc12 [Compound 89] , state its recorded EC50.
Result string: 6

Query string: I have this compound here, O=C(Nc1ccnc(N2CCCCC2)c1)c1n[nH]c2ccc(-c3cncc(CN4CCCCC4)c3)cc12 [Compound 101] , and I need its recorded EC50.
Result string: 1

Query string: Fill blank: measured EC50 of the compound CN1CCC(NC(=O)c2n[nH]c3ccc(-c4ccc(F)c(F)c4)cc23)CC1 [Compound 19] is ____.
Result string: 848

Query string: Please look up its EC50: Cc1cc2[nH]nc(C(=O)Nc3cccnc3)c2cc1-c1cccnc1 [Compound 44]
Result string: 23

Query string: Data request, read-out EC50, for CCN1CCC(NC(=O)c2n[nH]c3cc(F)c(-c4cncc5ccccc45)cc23)CC1 [Compound 1293]
Result string: 210

Query string: If you can, please state the reported EC50 value of CC(C)NC(=O)c1n[nH]c2ccc(-c3cncc(F)c3)cc12 [Compound 1250] .
Result string: 49

Query string: # query: EC50 of entry CCN1CCC(NC(=O)c2n[nH]c3ccc(-c4cncc5ccccc45)cc23)CC1 [Compound 1292]
Result string: 74

Query string: Item O=C(Nc1c(F)cncc1F)c1n[nH]c2ccc(-c3cncc(CN4CCCCC4)c3)cc12 [Compound 79] has what recorded EC50?
Result string: 1

Query string: What does the record list as EC50 for CN1CCC2(CC1)CC(NC(=O)c1n[nH]c3ccc(-c4cncc(F)c4)cc13)C2 [Compound 1277] ?
Result string: 11

Query string: Which EC50 is reported for this compound? CC(C)CN1CCC(NC(=O)c2n[nH]c3ccc(-c4cccc(F)c4F)cc23)CC1 [Compound 93]
Result string: 73

Query string: Can you look up the measured EC50 of CN1CCN(Cc2ccc(NC(=O)c3n[nH]c4ccc(-c5cccc(F)c5F)cc34)cc2)CC1 [Compound 1332] for me?
Result string: 14

---

System: Wnt activity (Wnt-responsive SP5 promoter luciferase reporter in SW480 cells)
Assay: Wnt activity reporter assay: SW480 cells with SP5 promoter-driven firefly luciferase
Type: cell-based
Details: Homo sapiens, 24 h after compound addition, read-out: Wnt inhibition
Labelling: IC50 reported below 5 µM becomes 1 (yes); at or above becomes 0 (no).

Query string: API: query returns whether the compound falls strictly under 5 µM in IC50. Query: CC(C)(F)CN1CCC(NC(=O)c2n[nH]c3ccc(-c4cccnc4)cc23)CC1 [Compound 1309]
Result string: 1 (yes)

Query string: Given the entry O=C(NC1CCNCC1)c1n[nH]c2ccc(-c3cccc(F)c3F)cc12 [Compound 254] , would its reported IC50 be below 5 µM?
Result string: 0 (no)

Query string: Here's an entry: CN(C(=O)c1n[nH]c2ccc(-c3cncc(CN4CCCCC4)c3)cc12)c1cccnc1 [Compound 76] . Is its IC50 below 5 µM?
Result string: 0 (no)

Query string: Given the entry CN1CCC(NC(=O)c2n[nH]c3ccc(-c4cncc(CN5CCC5)c4)cc23)CC1 [Compound 8] , would its reported IC50 be below 5 µM?
Result string: 0 (no)

Query string: Threshold test, IC50 < 5 µM: CN1CCC(NC(=O)c2n[nH]c3ccc(-c4cnccc4C(F)(F)F)cc23)CC1 [Compound 1340]
Result string: 1 (yes)

Query string: Hi there! Is IC50 for CC(C)(C)CN1CCC(NC(=O)c2n[nH]c3cc(F)c(-c4cccnc4)cc23)CC1 [Compound 1342] below 5 µM, do you know?
Result string: 1 (yes)

Query string: Lab note: confirm whether the reported IC50 for this compound is below 5 µM, equality not counting. compound: O=C(Nc1cccnc1)c1n[nH]c2ccc(-c3cccc(F)c3F)cc12 [Compound 96]
Result string: 1 (yes)

Query string: Is IC50 strictly under 5 µM for the entry CC(C)Oc1ccc(NC(=O)c2n[nH]c3ccc(-c4cncc(CN5CCCCC5)c4)cc23)cn1 [Compound 67] ?
Result string: 1 (yes)
